System: SF-268
METHOD NOTES: NCI tumour cell line growth inhibition, 48 h
Calls of active or inactive are those of the source. Cut-off read from the data, not from the text of the source: active = GI50 up to about 1.1 µM and inactive = higher.
OBSERVED PROPERTY: GI50

{"COMPOUND": "C[C@]12CCc3nonc3C1CC[C@@H]1C2CC[C@]2(C)C(=O)/C(=N\\O)CC12 (stereo partly specified)", "GI50": "> 100 µM (inactive)"}
{"COMPOUND": "O/N=C/C1c2ccccc2-c2ccccc21", "GI50": "15.3 µM (inactive)"}
{"COMPOUND": "O=C(O/N=C1/CCC/C1=C\\c1ccccc1)c1ccc([N+](=O)[O-])cc1", "GI50": "71.6 µM (inactive)"}
{"COMPOUND": "O=C1C=C(Sc2ccccc2)c2nccc3c2c1nc1ccccc13", "GI50": "12.4 µM (inactive)"}
{"COMPOUND": "COc1ccc(-c2cc(O)c3cc4c(cc3n2)OCO4)cc1OC", "GI50": "> 100 µM (inactive)"}
{"COMPOUND": "N#Cc1c(-c2ccccc2)c(C#N)c(=S)n(C2OCC(O)C(O)C2O)c1N (stereo unspecified)", "GI50": "> 100 µM (inactive)"}
{"COMPOUND": "C(=C\\c1ccco1)/c1cccc(/C=C/c2ccco2)n1", "GI50": "> 50 µM (inactive)"}
{"COMPOUND": "Cc1cccc2nc3cc(O)cc(O)c3c(O)c12", "GI50": "> 10 µM (inactive)"}

## Input Give its GI50 value. Item: C=CCC12CC(=O)C=C1CCC1(C2)OCCO1 (stereo unspecified)
## Output > 100 µM (inactive)

## Input Give its GI50 value. Item: O=C(c1ccco1)N1CCN(C(=O)c2ccco2)C1=S
## Output 6.01 µM (inactive)

## Input Give its GI50 value. Item: COC(=O)c1sc(=S)sc1SCc1ccccc1CSc1sc(=S)sc1C(=O)OC
## Output > 100 µM (inactive)
